Experiment: growth inhibitors of H69AR lung tumor, primary screen, human, duplicate replicates (AID 580);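 also: 100% = mean luminescence of untreated wells and 0% = no signal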
Conditions: H69AR lung tumor cells viability, ATP luminescence, 72 h; at 10 µM; stronger effect = lower value
Active and inactive are the calls of the source.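 The calls were made as follows: active = viability at or under a set limit in both replicates, limit being median viability minus 3 SD (cut at about 48% in these data, passing the limit was not always enough); inconclusive = at or under the limit in just one replicate; inactive = at or above the limit in both replicates.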
measuredEndpoint: viability

> print(dat)
                                   compound          measured
1  O=C(CSc1n[nH]c(-c2cccs2)n1)N1CCN(S(=O)(=O)c2ccccc2)CC1   102% (inactive)
2      CCOCCCn1c(=S)[nH]c2cc3c(cc2c1=O)OCO3  97.6% (inactive)
3  Cc1cc(O)c(C2(C(F)(F)F)NCCNC2=O)cc1C (centres undefined)  98.8% (inactive)
4  CCOc1ccc(Oc2nc(Nc3ccc(C)cc3)nc(N(C)C)n2)nn1  95.3% (inactive)

* * *

Test: SK-BR-3 cell growth inhibitors, pilot screen, 24 h, human (AID 572);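 also: compound exposure lasted between 18 and 24 h rather than exactly 24 h; 100% = carrier-treated control wells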
Settings: SK-BR-3 viability, CellTiter-Glo luminescence, at 10 µM, stronger effect = lower value
measuredEndpoint: viability (%)

> print(dat)
                                    compound  measured
 1  Cc1cc(C)n(-c2cc(N3CCOCC3)nc(-c3ccccc3)n2)n1        85
 2  COCCNC(=O)C(c1cccc(OC)c1)N(Cc1cccs1)C(=O)Cn1nnc2ccccc21 (stereo unspecified)       110
 3  CCN1CCN(c2ncc(C(=O)N3CCN(c4ccccc4OC)CC3)c3ccccc23)CC1        81
 4           O=C(CCCc1cccs1)Nc1nc2c(s1)CCCC2      86.5
 5  CC(C(=O)NCCCN1CCOCC1)n1cccc1C(=O)c1ccccc1 (stereo unspecified)        90
 6  CCCOc1ccc(-c2nnn(CC(=O)Nc3cccc(C(=O)OC)c3)n2)cc1       100
 7  CCOc1cc(S(=O)(=O)N2CCC(Cc3ccccc3)CC2)c(OCC)cc1-n1cnnn1      77.5
 8      Clc1ccc(Cc2nn3c(-c4ccncc4)nnc3s2)cc1      99.5
 9          S=c1[nH]nc(Cc2ccccc2)n1-c1ccccc1       108
10  Cc1nnc2n(Cc3ccccc3)c(=O)c3c4c(sc3n12)COC(C(C)C)C4 (stereo unspecified)       124
11  O=C1NC2=C(C(=O)CCC2)C(c2ccc3ncccc3c2)N1 (stereo unspecified)       106
12           N#Cc1nc(-c2cccs2)oc1NCCc1ccccc1      93.5
13                       Nc1nnn(Cc2ccccc2)n1      93.5
14  O=C(C1CCC1)N1CCc2cc(S(=O)(=O)Nc3ccc4c(c3)OCO4)ccc21      85.5
15  O=C(NCCCN1CCOCC1)C1CC(=O)N(CCc2ccccc2)C1 (stereo unspecified)       104
16  O=S(=O)(c1ccccc1)N(Cc1nc(-c2ccccc2)no1)C1CCCCC1        88
17  CCN(CCCNC(=O)C1CCN(S(=O)(=O)c2cccc3nonc23)CC1)Cc1ccccc1        89
18         Cc1ccc(-c2cc(C(=O)N3CCCC3)no2)cc1      93.5
19     O=C(N1CCCCCC1)N1CCN(C(=O)N2CCOCC2)CC1       105
20     CCOC(=O)c1[nH]cc(-c2ccccc2)c1N1CCOCC1      92.5
21               CCCCNC(=O)c1nc2ncc(Br)cn2n1       108
22              Clc1ccc2nc(N3CCCCC3)[nH]c2c1      90.5
23  CCOc1ccc(S(=O)(=O)Nc2ccccc2C(=O)Nc2ccccc2N2CCOCC2)cc1       104
24  CCC(=O)N1CCc2cc(S(=O)(=O)CCC(=O)Nc3ccc(F)c(F)c3)ccc21       104
25  CC(NS(=O)(=O)c1ccccc1)C(c1cccs1)N1CCN(C)CC1 (stereo unspecified)      93.5
26             CCOC(=O)Cc1nn2c(=O)cc(C)nc2s1       116
27  CCSCCC(NC1=CC(=O)CC(C)(C)C1)C(=O)O (stereo unspecified)        92
28  CC(C)(C)n1nc2c(c1NC(=O)COc1ccc(Cl)cc1)CSC2      97.5
29  CCOC(=O)N1CCN(S(=O)(=O)c2ccc(OCC)c(C)c2)CC1       110
30     CCCOc1ccccc1NC(=O)c1c(-c2ccccc2)noc1C      84.5
31  Cc1ccnc(NC(=O)CCC(=O)N(CC(=O)NC(C)(C)C)C2CCCC2)c1       108
32                 CCN(CC)c1ncc(C)c(=O)[nH]1       103
33   O=C(NC1CCCC1)c1ccc(S(=O)(=O)N2CCCC2)cc1       107
34  COc1ccc(C(CNC(=O)CN2C(=O)NC3(CC(C)CC(C)(C)C3)C2=O)N2CCOCC2)cc1 (stereo unspecified)      94.5
35     FC(F)(F)c1cc(-c2ccccc2)nc(N2CCCCC2)n1       101
36  O=C(CN(c1ccc(F)cc1)S(=O)(=O)c1ccc2c(c1)OCCO2)Nc1ccc2c(c1)OCO2        83

* * *

Assay: HUVEC growth inhibition – cell-based, human, primary screen (AID 575);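 also: 100% = median of untreated cell wells with 0.1% DMSO on each plate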
Conditions: HUVEC proliferation, CellTiter-Glo luminescence, 72 h; at 10 µM; stronger effect = lower value
Calls of active or inactive are those of the source.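 Rule for the calls: active = viability at or below 30% in both replicate assays; inconclusive = viability at or below 30% in just one of the two assays; inactive = the rest.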
Known viability of a selection of molecules
measuredEndpoint: viability

> print(dat)
                                   molecule          measured
1  CC(C)(C)n1nc2c(c1NC(=O)COc1ccc(Cl)cc1)CSC2  80.5% (inactive)
2             Cc1cc(NC(=O)c2cnn3cccnc23)no1    97% (inactive)
3  Cc1ccccc1NS(=O)(=O)c1cc(S(C)(=O)=O)ccc1Cl   110% (inactive)

* * *

Test: reversal of MRP1-mediated doxorubicin resistance, pilot screen, H69AR cells, doxorubicin co-treatment (AID 601)
Settings: H69AR cells + 2 uM doxorubicin, CellTiter-Glo, 72 h; measured here: viability with 2 uM doxorubicin; at 10 µM; stronger effect = lower value
Measured viability of individual entries
measuredEndpoint: viability (%)

> print(dat)
                                   compound  measuredendpoint  unitssymbol  measured
1    CS(=O)(=O)Nc1ccc(S(=O)(=O)Nc2nccs2)cc1         viability            %      92.2
2       COCCn1c(COc2ccc(Cl)cc2)nnc1SCC(N)=O         viability            %      90.8
3  CCC(C)n1[nH]c(=O)c2c(C)cc(C)nc21 (stereo not drawn)         viability            %      88.9

* * *

viability for assorted molecules
Assay: reversal of MRP1-mediated doxorubicin resistance, pilot screen, H69AR cells, doxorubicin co-treatment (AID 601)
Conditions: H69AR cells, CellTiter-Glo, 72 h; compound alone cytotoxicity; at 10 µM
measuredEndpoint: viability

> print(dat)
                                   molecule  measuredendpoint  measured
1  COc1cc2nc(C3CCC3)n(NC(=O)C3CCCC(OC)C3)c(=O)c2cc1OC (centres undefined)         viability     92.2%
2  CCCOC(=O)c1ccc(-c2c(C)noc2-c2ccc(OC)cc2O)o1         viability     75.8%
3  Cc1ccc(-c2c3c(=O)n(C)c(=O)n(C)c3cn2CCCN2CCOCC2)cc1         viability     77.8%
4         Cc1csc(SCC(=O)NC(=O)NCc2ccccc2)n1         viability     95.2%
5      O=C(CSc1nnc(-c2ccccc2F)o1)OCc1ccccc1         viability      102%
6  Cc1ccc(NC(=O)C2CCCN2C(=O)Oc2ccccc2)cc1 (centres undefined)         viability     91.5%
7       Cc1ccc(SCCNS(=O)(=O)c2ccc(F)cc2)cc1         viability      105%
8   Clc1ccc(-n2ncc3c(NCCCn4ccnc4)ncnc32)cc1         viability     93.5%
9  CC(=O)C1=C(O)C(=O)N(Cc2ccco2)C1c1ccc2c(c1)OCO2 (centres undefined)         viability      112%

* * *

Target: Receptor tyrosine-protein kinase erbB-2 (Homo sapiens) (UniProt P04626)
Sequence (P04626 whole entry, looked up): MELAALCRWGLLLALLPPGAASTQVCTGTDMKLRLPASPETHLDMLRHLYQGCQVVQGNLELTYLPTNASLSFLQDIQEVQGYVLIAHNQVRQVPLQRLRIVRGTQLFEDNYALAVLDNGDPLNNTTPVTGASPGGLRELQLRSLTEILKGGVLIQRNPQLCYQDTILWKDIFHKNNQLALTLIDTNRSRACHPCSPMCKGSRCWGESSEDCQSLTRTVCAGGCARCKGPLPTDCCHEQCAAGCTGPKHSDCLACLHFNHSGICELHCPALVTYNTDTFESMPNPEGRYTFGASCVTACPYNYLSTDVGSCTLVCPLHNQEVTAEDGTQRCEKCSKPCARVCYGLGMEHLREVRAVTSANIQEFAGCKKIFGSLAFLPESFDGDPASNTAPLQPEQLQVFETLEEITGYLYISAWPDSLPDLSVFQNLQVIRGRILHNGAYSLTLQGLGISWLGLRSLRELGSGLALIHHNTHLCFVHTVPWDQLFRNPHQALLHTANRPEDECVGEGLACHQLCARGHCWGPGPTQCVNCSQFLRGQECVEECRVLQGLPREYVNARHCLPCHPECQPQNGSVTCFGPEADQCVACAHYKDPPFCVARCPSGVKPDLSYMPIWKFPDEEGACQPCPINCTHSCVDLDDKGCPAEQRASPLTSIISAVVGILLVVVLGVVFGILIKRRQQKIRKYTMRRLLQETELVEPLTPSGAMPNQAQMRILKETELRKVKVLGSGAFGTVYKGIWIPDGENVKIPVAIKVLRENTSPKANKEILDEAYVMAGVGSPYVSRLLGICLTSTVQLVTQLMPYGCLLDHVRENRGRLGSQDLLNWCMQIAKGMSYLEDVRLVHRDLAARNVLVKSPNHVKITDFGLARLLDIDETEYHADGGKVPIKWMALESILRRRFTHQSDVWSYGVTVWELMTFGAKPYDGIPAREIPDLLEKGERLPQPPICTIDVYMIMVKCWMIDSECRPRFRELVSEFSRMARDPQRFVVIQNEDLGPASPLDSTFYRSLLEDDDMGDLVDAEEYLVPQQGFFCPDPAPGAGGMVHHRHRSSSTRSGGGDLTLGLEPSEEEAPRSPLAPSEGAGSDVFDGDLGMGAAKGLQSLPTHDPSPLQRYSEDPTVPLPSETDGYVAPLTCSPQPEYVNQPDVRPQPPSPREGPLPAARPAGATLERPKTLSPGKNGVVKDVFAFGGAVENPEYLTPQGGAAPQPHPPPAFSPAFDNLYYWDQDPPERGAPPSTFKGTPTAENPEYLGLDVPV
Test: reducers of endogenous Her2 protein level, primary screen, SKBR3 breast tumor cells, AlphaScreen, ATP viability (AID 461);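 also: lower value means less Her2 protein in the cells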
Conditions: 18-24 h, at 10 µM, stronger effect = lower value
Each item that follows carries a reported Her2 level.
measuredEndpoint: Her2 level (%)

> print(dat)
                                    compound                        experimentaltarget  measuredendpoint  unitssymbol  measured
 1          CC(=O)Nc1c(Cl)n(C(C)=O)c2ccccc12  Receptor tyrosine-protein kinase erbB-2 (Homo sapiens) (UniProt P04626)        Her2 level            %        65
 2  O=C(NC12CC3CC(CC(C3)C1)C2)C1CCCN1C(=O)NC1CCCCC1 (stereo unspecified)  Receptor tyrosine-protein kinase erbB-2 (Homo sapiens) (UniProt P04626)        Her2 level            %       113
 3  CCOC(=O)COc1ccc(C2NC(C(=O)O)CS2)cc1 (stereo unspecified)  Receptor tyrosine-protein kinase erbB-2 (Homo sapiens) (UniProt P04626)        Her2 level            %       102
 4  CC(=O)C1=C(O)C(=O)N(Cc2ccco2)C1c1ccc2c(c1)OCO2 (stereo unspecified)  Receptor tyrosine-protein kinase erbB-2 (Homo sapiens) (UniProt P04626)        Her2 level            %      84.5
 5  Cc1c(C(=O)OCC(C)C)[nH]c2c1C(=O)CC(c1ccco1)C2 (stereo unspecified)  Receptor tyrosine-protein kinase erbB-2 (Homo sapiens) (UniProt P04626)        Her2 level            %        58
 6  CCCOc1ccc([C@@H]2C3CN(C(=O)OCC)CC=C3C(C#N)=C(N)C2(C#N)C#N)cc1OC (stereo partly specified)  Receptor tyrosine-protein kinase erbB-2 (Homo sapiens) (UniProt P04626)        Her2 level            %        40
 7  Cc1cc(C(=O)CSCc2nnc3n(CCC(C)C)c(=O)c4ccccc4n23)c(C)n1C  Receptor tyrosine-protein kinase erbB-2 (Homo sapiens) (UniProt P04626)        Her2 level            %        84
 8         CCOc1ccccc1NC(=O)CSc1c(C)n[nH]c1C  Receptor tyrosine-protein kinase erbB-2 (Homo sapiens) (UniProt P04626)        Her2 level            %        88
 9  Cc1cc(C)cc(NC(=O)CCNS(=O)(=O)c2ccc3c(c2)oc(=O)n3C)c1  Receptor tyrosine-protein kinase erbB-2 (Homo sapiens) (UniProt P04626)        Her2 level            %       112
10  COc1ccc(N2CCN(C(=O)CSc3nnc4n3C(C)(C)Cc3ccccc3-4)CC2)cc1  Receptor tyrosine-protein kinase erbB-2 (Homo sapiens) (UniProt P04626)        Her2 level            %       100
11  COc1ccc(NC2c3ncccc3C(=O)N2Cc2ccccc2)c(OC)c1 (stereo unspecified)  Receptor tyrosine-protein kinase erbB-2 (Homo sapiens) (UniProt P04626)        Her2 level            %      85.5
